experiment: HoxA9-arrested leukemia cell differentiation promoters – flow cytometry, MLPCN library, primary screen (AID 624256); details: ER-HoxA9 myeloid progenitors, lysozyme-GFP differentiation, at 10 µM; measured here: differentiation confirmed by MAC1 staining, stronger effect = higher value;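 for GFP+ MAC1+ double positive: cells exposed to compound for four days before flow analysis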
Among all 360,000 compounds or so, about 3,700 (1%) were called active. About 2% were inconclusive and are not listed. The full list was thinned out, with actives kept by preference.
So basically: GFP+ MAC1+ double positive at 0.8% or higher? That is T. Lower than 0.8%? That is F.

[
  {
    "compound": "COc1ccc2c(c1)c1ncn(Cc3ccccn3)c(=O)c1n2C",
    "groupLabel": "F"
  },
  {
    "compound": "Cc1ccc2[nH]c3c(=O)n(Cc4ccccn4)cnc3c2c1",
    "groupLabel": "T"
  },
  {
    "compound": "CC(C)CNC(=O)C1(C)CCCN1C(=O)CSc1ccccc1 (stereo unspecified)",
    "groupLabel": "T"
  },
  {
    "compound": "CN(C(=O)CN1CCN(c2cc(-c3ccc(OCc4ccccc4)cc3)ncn2)CC1)c1ccccc1",
    "groupLabel": "T"
  },
  {
    "compound": "CC1(C(=O)Nc2ccc3c(c2)OCCO3)CSCC(=O)N1CCOc1ccccc1 (stereo unspecified)",
    "groupLabel": "T"
  }
]

====

test: HoxA9-arrested leukemia cell differentiation promoters – flow cytometry, MLPCN library, primary screen (AID 624256); conditions: ER-HoxA9 myeloid progenitors, lysozyme-GFP differentiation, at 10 µM
About 3,700 (1%) of roughly 360,000 compounds were called active. About 2% were inconclusive and are not listed.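 The calls were made as follows: active = normalized GFP-positive differentiation at or above the plate's own cutoff, the solvent-only control mean plus 3 SD; inconclusive = no clear call, values can overlap the other calls; inactive = the rest.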 The list comes from a sample in which actives are over-represented; it also holds close analogues and randomly drawn compounds. Where a SMILES comes first, the peptide text is derived from it. The star is where a group is joined. OPac = O=C(CO*)c1ccccc1; Bz = O=C(c1ccccc1)*
Outcomes: active, inactive

[
  {
    "compound": "O=C1NC[C@H](Cc2ccc(O)cc2)N(C[C@H]2CCCN2C[C@H](Cc2ccccc2)N2C[C@H](Cc3ccccc3)N(CCc3ccccc3)C(=O)C2=O)C1=O",
    "groupLabel": "inactive"
  },
  {
    "compound": "COC(=O)[C@@]12C[C@@H](CC(=O)N3CCCCC3)C(=O)N(Cc3ccc4c(c3)OCO4)C1=CCC(C)(C)C2",
    "groupLabel": "inactive"
  },
  {
    "compound": "N#CCCN(C(=O)COC(=O)c1ccc(S(=O)(=O)N2CCCCCC2)cc1)c1ccccc1",
    "groupLabel": "inactive"
  },
  {
    "compound": "CN(Cc1ccccn1)Cc1nc(-c2ccc(Cl)cc2)no1",
    "groupLabel": "active"
  },
  {
    "compound": "Cc1c(C(=O)OCC(=O)N(CCC#N)c2ccccc2)oc2c1ccc1ccccc12",
    "groupLabel": "active"
  },
  {
    "compound": "CCCCn1nnnc1C(c1cc2ccccc2o1)N(C)Cc1ccc(Cl)c(Cl)c1 (centres undefined)",
    "groupLabel": "inactive"
  },
  {
    "compound": "Cc1cc(Cl)ccc1-c1nc(NCCN(C)C)nc2ccsc12",
    "groupLabel": "inactive"
  },
  {
    "compound": "N#C/C(=C/c1ccc(N2CCOCC2)o1)C(=O)N1CCOCC1",
    "groupLabel": "inactive"
  },
  {
    "compound": "CCN1CC(CN(C)Cc2nc(-c3ccc(Cl)cc3)no2)CC1=O (centres undefined)",
    "groupLabel": "inactive"
  },
  {
    "compound": "O=C(CNC(=O)c1ccccc1)NCC(=O)OCC(=O)c1ccccc1 (Bz-Gly-Gly-OPac)",
    "groupLabel": "inactive"
  },
  {
    "compound": "CN1C(=O)[C@H]2[C@@H](C3CC3)N3C(=O)CN(Cc4ccccc4)C(=O)[C@@]3(C)[C@H]2C1=O",
    "groupLabel": "inactive"
  },
  {
    "compound": "COc1cc(/C=C2/C(=O)NN(c3ccc(F)cc3)C2=O)cc([N+](=O)[O-])c1O",
    "groupLabel": "inactive"
  },
  {
    "compound": "CC(=O)N1Cc2cc(C(=O)NCc3cccc(F)c3)nc(-c3cccc(C4=CCCC4)c3)c2[C@H]1CCO",
    "groupLabel": "inactive"
  },
  {
    "compound": "COC(=O)C[C@H]1C=C[C@H](NC(=O)c2ccc(F)cc2)[C@@H](CO)O1",
    "groupLabel": "inactive"
  },
  {
    "compound": "NCCCCC(C(=O)O)N(C(=O)OCc1ccccc1)C(=O)OCc1ccccc1 (centres undefined)",
    "groupLabel": "inactive"
  },
  {
    "compound": "Cc1ccc(S(=O)(=O)NC(=O)COc2ccccc2C)cc1",
    "groupLabel": "inactive"
  },
  {
    "compound": "COc1cc(/C=C2/C(=O)NN(c3cccc(Cl)c3)C2=O)cc(Br)c1O",
    "groupLabel": "active"
  },
  {
    "compound": "CCC(c1nnnn1-c1ccc2c(c1)OCCO2)N1CCN(c2ccc(C(F)(F)F)cn2)CC1 (centres undefined)",
    "groupLabel": "inactive"
  },
  {
    "compound": "N#CCCN(C(=O)COC(=O)c1ccc2c(c1)OCCO2)c1ccccc1",
    "groupLabel": "inactive"
  }
]
